System: Staphylococcus epidermidis (1.4260)
Type: cell-based
Ends that are not written are not given here.
Each record here notes measured MIC S. epidermidis.
readout: MIC S. epidermidis (µM)

LKRVWKRKFKLLKRYWRQLKKPVR-NH2 [SAAP-4]: 3.13
LKRVWKRVFKLLKRYKRQLKKPVR-NH2 [SAAP-9]: 3.13
LKRVWKRVFKLKKRYWRQLKKPVR-NH2 [SAAP-7]: 12.50
LKRKWKRVFKLLKRYWRQLKKPVR-NH2 [SAAP-2]: 3.13
KKRVWKRVFKLLKRYWRQLKKPVR-NH2 [SAAP-1]: 3.13
LKRVWKRVFKLLKRKWRQLKKPVR-NH2 [SAAP-8]: 1.56
